The measurements presented in this section are drawn from patent US20170022201A1.

measured_target: EF2K (Homo sapiens, UniProt O00418)
Construct: host or cells: LN-229 glioblastoma cell lysate
Sequence (O00418 1-725): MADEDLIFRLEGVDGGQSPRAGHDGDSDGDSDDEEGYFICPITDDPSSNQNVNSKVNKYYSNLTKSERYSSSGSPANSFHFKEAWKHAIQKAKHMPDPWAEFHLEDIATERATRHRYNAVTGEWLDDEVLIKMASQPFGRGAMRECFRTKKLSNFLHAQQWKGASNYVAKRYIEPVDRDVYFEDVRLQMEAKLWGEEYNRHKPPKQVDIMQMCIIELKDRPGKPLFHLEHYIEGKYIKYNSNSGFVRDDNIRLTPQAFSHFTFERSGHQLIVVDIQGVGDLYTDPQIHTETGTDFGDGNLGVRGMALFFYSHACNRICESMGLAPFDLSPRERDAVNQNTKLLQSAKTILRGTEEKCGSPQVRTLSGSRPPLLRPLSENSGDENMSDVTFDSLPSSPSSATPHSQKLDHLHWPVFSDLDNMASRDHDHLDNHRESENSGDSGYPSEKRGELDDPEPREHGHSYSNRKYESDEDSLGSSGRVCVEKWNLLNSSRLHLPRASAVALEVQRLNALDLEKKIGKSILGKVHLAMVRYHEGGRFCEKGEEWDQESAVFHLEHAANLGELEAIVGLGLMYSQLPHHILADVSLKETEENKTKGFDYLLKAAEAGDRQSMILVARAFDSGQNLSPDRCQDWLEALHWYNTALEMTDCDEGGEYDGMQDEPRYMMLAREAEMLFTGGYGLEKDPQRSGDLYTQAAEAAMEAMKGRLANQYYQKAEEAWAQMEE
assay_name: Biochemical EF2K lysate-based kinase assay (AlphaLISA p-eEF2 Thr56)
measurement_context: LN-229 cell lysates, 10 mM ATP, pH 6.6; pIC50 = -log IC50 (M); read-out: eEF2K_C_alphalisa pIC50 (converted)
observable: IC50
Answer with the number, then the unit.

CN1CCCNC(=O)CN2CCN(CC2)Cc2cccc(c2)Nc2cc(ccn2)-c2ccc1nc2 [Compound 72]    2.88e-07 M

Q: Could you share what IC50 was measured for O=C1CN2CCN(Cc3cccc(c3)Nc3cc(ccn3)-c3cnc(nc3)NCCCN1)C(CO)C2 (single isomer, unassigned) [Compound 8] , tested on EF2K (Homo sapiens, UniProt O00418)?
Result: 4.17e-08 M

Q: Next entry: O=C1CN2CCN(Cc3cccc(c3)Nc3cc(ccn3)-c3cnc(nc3)N3CCCC3CCN1)C(CO)C2 (stereo not shown) [Compound 46]
Result: 1.32e-08 M

Q: Next entry: CC1(C)CN2CCN1CC(=O)NCCCNc1ncc(cn1)-c1ccnc(c1)Nc1cccc(c1)C2 [Compound 18]
Result: 8.71e-08 M

###

measured_target: UniProt:Q8NEB9
Sequence (Q8NEB9 whole entry): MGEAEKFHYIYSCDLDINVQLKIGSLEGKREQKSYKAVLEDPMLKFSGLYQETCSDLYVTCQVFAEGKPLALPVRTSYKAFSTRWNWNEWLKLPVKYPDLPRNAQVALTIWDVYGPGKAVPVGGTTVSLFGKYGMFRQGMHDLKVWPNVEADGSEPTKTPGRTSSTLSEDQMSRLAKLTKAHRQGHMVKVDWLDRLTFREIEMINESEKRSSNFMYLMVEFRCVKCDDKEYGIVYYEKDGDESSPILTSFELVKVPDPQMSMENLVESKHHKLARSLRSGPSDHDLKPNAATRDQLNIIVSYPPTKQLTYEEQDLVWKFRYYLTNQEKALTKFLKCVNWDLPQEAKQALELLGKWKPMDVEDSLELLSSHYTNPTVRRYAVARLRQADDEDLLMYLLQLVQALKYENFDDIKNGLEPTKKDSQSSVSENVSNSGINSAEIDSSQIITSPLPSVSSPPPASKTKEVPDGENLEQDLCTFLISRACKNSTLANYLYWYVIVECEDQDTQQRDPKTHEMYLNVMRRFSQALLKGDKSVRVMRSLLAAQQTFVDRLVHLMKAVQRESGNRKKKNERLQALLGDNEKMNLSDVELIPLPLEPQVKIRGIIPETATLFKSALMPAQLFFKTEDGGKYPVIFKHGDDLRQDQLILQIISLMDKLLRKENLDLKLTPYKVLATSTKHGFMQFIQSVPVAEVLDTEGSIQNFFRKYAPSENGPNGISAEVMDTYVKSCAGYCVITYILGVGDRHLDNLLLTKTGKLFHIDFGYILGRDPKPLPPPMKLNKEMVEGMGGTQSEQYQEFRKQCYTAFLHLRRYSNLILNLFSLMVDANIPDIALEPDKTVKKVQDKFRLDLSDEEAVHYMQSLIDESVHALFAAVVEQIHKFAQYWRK
assay_name: Biochemical Vps34 lipid kinase assay (ADP-Glo)
measurement_context: single dose 1 μM; residual activity compared to control (DMSO); 20 μM ATP
# binarize VPS34_1microM_%ofcntrl: threshold 30% inclusive, high side Met, low side Not met

O=C1CN2CCN(Cc3cccc(c3)Nc3cc(ccn3)-c3cnc(nc3)NCCCN1)C(CO)C2 (single isomer, unassigned)    Not met
N#CC1CC2CCNC(=O)CN3CCN(CC3)Cc3cccc(c3)Nc3cc(ccn3)-c3cnc(nc3)N2C1 (stereo not drawn) [Compound 78]    Met
CC1CN2CCN1Cc1cccc(c1)Nc1cc(ccn1)-c1cnc(nc1)N1CC(O)CC1CCNC(=O)C2 (stereo not drawn)    Met
O=C1CN2CCN(CC2)Cc2cccc(c2)Nc2cc(ccn2)-c2cnc(nc2)NC(C(=O)O)CCN1 (stereo not drawn) [Compound 119]    Met
O=C1CN2CCN(CC2)Cc2cccc(c2)Nc2cc(ccn2)-c2cnc(nc2)NC(C(=O)O)CCN1 (stereo not drawn) [Compound 117]    Not met

Q: Answer whether VPS34_1microM_%ofcntrl of NCCCOCC1CN2CCN1Cc1cccc(c1)Nc1cc(ccn1)-c1cnc(nc1)NCCCNC(=O)C2 (stereo not drawn) [Compound 148] is greater than or equal to 30%.
Result: Not met

Q: Next entry: O=C1CN2CCN(CC2)Cc2cccc(c2)Nc2cc(ccn2)-c2cnc(nc2)NC(C(=O)O)CCN1 (stereo not drawn) [Compound 120]
Result: Not met

Q: Next entry: N#CC1CC2CCNC(=O)CN3CCN(CC3)Cc3cccc(c3)Nc3cc(ccn3)-c3cnc(nc3)N2C1 (stereo not drawn) [Compound 77]
Result: Met
